Listed below: melting point values for each entry.

{"molecule": "CS(=O)(=O)N1CCN(Cc2cc3nc(-c4cccc5[nH]ncc45)nc(N4CCN(CCCCC(=O)NO)CC4)c3s2)CC1 [Compound 30]", "melting point": "142 to 145 °C"}

Exercise: Recorded melting point of O=C(/C=C/c1ccc(NCc2cc3nc(-c4cccc5[nH]ncc45)nc(N4CCOCC4)c3s2)cc1)NO [Compound 80] , please.
Key: > 300 °C

Exercise: Need melting point of COc1ccc(-c2nc(N3CCOCC3)c3sc(NCCCCCC(=O)NO)cc3n2)cn1 [Compound 233] , thanks.
Key: 125 to 130 °C

Exercise: Recorded melting point of CC(=O)NCc1ccc(-c2nc(N3CCOCC3)c3sc(CN(C)c4ncc(C(=O)NO)cn4)cc3n2)cc1 [Compound 136] , please.
Key: 178 to 180 °C

Exercise: Could you share which melting point value was measured for CN(Cc1cc2nc(-c3cccc(N)c3)nc(N3CCOCC3)c2s1)c1ncc(C(=O)NO)cn1 [Compound 134] ?
Key: 179 to 182 °C

Exercise: I am curious: what melting point value has been reported for C[C@H](O)c1cccc(-c2nc(N3CCOCC3)c3sc(CN(C)c4ncc(C(=O)NO)cn4)cc3n2)c1 [Compound 296] ?
Key: 168 to 172 °C

Exercise: Requested read-out: melting point. Entry: CCOc1ccc(-c2nc(N3CCOCC3)c3sc(CN(C)c4ncc(C(=O)NO)cn4)cc3n2)cn1 [Compound 255]
Key: 162 to 165 °C

Exercise: So what does the record say about melting point for CN(Cc1cc2nc(-c3ccc(CN)cc3)nc(N3CCOCC3)c2s1)c1ncc(C(=O)NO)cn1 [Compound 135] ?
Key: 184 to 186 °C

* * *

readout.label: melting point

{"compound": "CN(Cc1cc2nc(-c3cccc4[nH]ccc34)nc(N3CCOCC3)c2s1)c1ncc(C(=O)NO)cn1 [Compound 176]", "melting point": "200 to 212 °C"}

Exercise: Requested read-out: melting point. Entry: CN(Cc1cc2nc(-c3ccc(OCCO)nc3)nc(N3CCOCC3)c2s1)c1ncc(C(=O)NO)cn1 [Compound 256]
Key: 143 to 145 °C

Exercise: Which melting point is reported for this compound? CN(Cc1cc2nc(-c3cc(O)ccc3F)nc(N3CCOCC3)c2s1)c1ncc(C(=O)NO)cn1 [Compound 292]
Key: 250 to 255 °C

Exercise: Please report the recorded melting point for CC(C)c1ccc(-c2nc(N3CCOCC3)c3sc(CN(C)c4ncc(C(=O)NO)cn4)cc3n2)cc1 [Compound 148] .
Key: 155 °C (dec.)
